# target_or_system: purified human von Willebrand factor (vWF) (human, UniProt P04275 764-2813)
# protocol_summary: cell-based or functional assay
property: EC50 (nM)
Only the number, expressed in nM, is required.

Briefly, EC50 measured for humanized NMC-4 variant H9, L6 (IgG1) (antibody, V domains shown) VH: QVQLQESGPGLVKPSETLSLTCTVSGFSLTDYGVDWIRQPPGKGLEWIGMIWGDGSTDYNSALKSRVTISVDTSKNQFSLKLSSVTAADTAVYYCARDPADYGNYDYALDYWGQGTLVTVSS VL: DIQMTQSPSSLSASVGDRVTITCSASQDINKYLNWYQQKPGKAVKLLIYYTSSLHSGVPSRFSGSGSGTDYTLTISSLQPEDIATYYCQQYEKLPWTFGQGTKVEIK : 0.13

Briefly, EC50 measured for humanized NMC-4 variant H2, L7 (IgG1) (antibody, V domains shown) VH: QVQLQESGPGLVKPSETLSLTCTVSGFSLTDYGVDWIRQPPGKGLEWIGMIWGDGSTDYNSALKSRLTISKDNSKNQVSLKLSSVTAADTAVYYCVRDPADYGNYDYALDYWGQGTSLTVSS VL: DIQMTQSPSSLSASVGDRVTITCSASQDINKYLNWYQQKPGKAVKLLIFYTSSLHSGVPSRFSGSGSGTDFTLTISSLQPEDIATYYCQQYEKLPWTFGQGTKVEIK : 0.15

Briefly, EC50 measured for humanized NMC-4 variant H9, L8 (IgG1) (antibody, V domains shown) VH: QVQLQESGPGLVKPSETLSLTCTVSGFSLTDYGVDWIRQPPGKGLEWIGMIWGDGSTDYNSALKSRVTISVDTSKNQFSLKLSSVTAADTAVYYCARDPADYGNYDYALDYWGQGTLVTVSS VL: DIQMTQSPSSLSASVGDRVTITCSASQDINKYLNWYQQKPGKAPKLLIYYTSSLHSGVPSRFSGSGSGTDFTLTISSLQPEDIATYYCQQYEKLPWTFGQGTKVEIK : 0.08
